# System: Escherichia coli TOP10;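 also: peptides expressed intracellularly from a pBAD plasmid library in pooled LB shake-flask culture, induced with 0.3% L-arabinose, DNA abundance read by NGS, three biological replicates, DESeq2 with apeglm shrinkage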
# protocol-description: shrunken log2 fold change of peptide-encoding DNA abundance (4.5 h post-induction vs induction); higher = less antimicrobial activity (less host growth inhibition)
# experimental-parameters: time post-induction: 4.5 h; library: site-saturation at positions 5, 18, 19, 20
What shrunken log2 fold change was measured for each of the following?
Write no unit; give the number alone.

get_value(item= "RRIRARPPRLPRPRPRPDSLPRP" , readout=shrunken log2 fold change) returns 0.0733

Short answer for "RRIRFRPPRLPRPRPRPIRHPRP" : shrunken log2 fold change was -0.355

The sequence listed as "RRIRTRPPRLPRPRPRPRQEPRP" shows shrunken log2 fold change equal to 0.0565

response.value for "RRIRCRPPRLPRPRPRPCDLPRP" (field: shrunken log2 fold change) = 3.04

The sequence identified as "RRIRNRPPRLPRPRPRPKNVPRP" registered its shrunken log2 fold change at -0.267

// recorded shrunken log2 fold change for "RRIRFRPPRLPRPRPRPDETPRP" : 0.145

Form: sequence = "RRIRVRPPRLPRPRPRPSFCPRP" ; shrunken log2 fold change = 0.212

Query "RRIRFRPPRLPRPRPRPVLHPRP" yields shrunken log2 fold change of -0.376

Measured shrunken log2 fold change of "RRIRMRPPRLPRPRPRPCTAPRP" : 0.191

Reported shrunken log2 fold change of "RRIRFRPPRLPRPRPRPWINPRP" : -0.0461

// sample "RRIRLRPPRLPRPRPRPKRGPRP" , its shrunken log2 fold change was 0.483

Entry under test: "RRIRNRPPRLPRPRPRPHQFPRP" . Its shrunken log2 fold change was -0.000243

shrunken log2 fold change reported for this sequence "RRIRARPPRLPRPRPRPIYRPRP" : -0.0972

// recorded shrunken log2 fold change for "RRIRPRPPRLPRPRPRPSDMPRP" : -0.273

Field shrunken log2 fold change (entry "RRIRHRPPRLPRPRPRPVGDPRP" ) reads -0.206
